# System: MV4-11
# Procedure Details: Antiproliferative activity against human MV4-11 cells expressing MLL-AF4 after 7 days by MTS assay
# Assay type: functional, cell-based
# Measurement Setup: MV4-11, 168 h
pIC50: −log10 of the molar value.
Measure: pIC50

NCCOc1cccc(CN2CCC(Nc3ncnc4sc(CC(F)(F)F)cc34)CC2)c1 | 5.38

I = FC(F)(F)Cc1cc2c(NCC3CCN(Cc4ccccc4)CC3)ncnc2s1
II = FC(F)(F)Cc1cc2c(NC3CCN(Cc4ccccc4)CC3)ncnc2s1
IN: Which of these two has the smaller recorded pIC50: I or II ? Kindly give the label for the entry you pick.
OUT: I

1 = FC(F)(F)Cc1cc2c(NC3CCN(CC4CC4)CC3)ncnc2s1
2 = Fc1ccc(CN2CCC(CNc3ncnc4sc(CC(F)(F)F)cc34)CC2)cc1
IN: // pick min by pIC50: 1 , 2 Pick one and reply with its label.
OUT: 1

###

# System: Menin/Histone-lysine N-methyltransferase MLL (Homo sapiens) (UniProt O00255+Q03164)
# Procedure Details: Inhibition of human recombinant full length menin/MLL1 (unknown origin) interaction using Ac-SRWRFPARPGTGRR-Ahx-Ahx-K-FAM as substrate at 20 uM after 15 mins by fluorescence polarization binding assay
# Assay type: protein assay
Measure: inhibition (%)

N#Cc1ccc(CN2CCC(CNc3ncnc4sc(CC(F)(F)F)cc34)CC2)cc1 | 33.4
O=[N+]([O-])c1cccc(CN2CCC(Nc3ncnc4sc(CC(F)(F)F)cc34)CC2)c1 | 43
FC(F)(F)Cc1cc2c(NCC3CCN(Cc4ccc(C(F)(F)F)cc4)CC3)ncnc2s1 | 18.5

I = FC(F)(F)Cc1cc2c(Nc3ccc(Cc4ccccc4)cc3)ncnc2s1
II = FC(F)(F)Cc1cc2c(NC3CCN(Cc4ccc(-c5ccccc5)cc4)CC3)ncnc2s1
IN: When the recorded inhibition values are compared, which is smaller: that of I or that of II ? // respond with label for picked entry
OUT: I
(I: 2%, II: 4.6%)

###

# System: Menin/Histone-lysine N-methyltransferase MLL (Homo sapiens)
# Sequence (O00255 whole entry): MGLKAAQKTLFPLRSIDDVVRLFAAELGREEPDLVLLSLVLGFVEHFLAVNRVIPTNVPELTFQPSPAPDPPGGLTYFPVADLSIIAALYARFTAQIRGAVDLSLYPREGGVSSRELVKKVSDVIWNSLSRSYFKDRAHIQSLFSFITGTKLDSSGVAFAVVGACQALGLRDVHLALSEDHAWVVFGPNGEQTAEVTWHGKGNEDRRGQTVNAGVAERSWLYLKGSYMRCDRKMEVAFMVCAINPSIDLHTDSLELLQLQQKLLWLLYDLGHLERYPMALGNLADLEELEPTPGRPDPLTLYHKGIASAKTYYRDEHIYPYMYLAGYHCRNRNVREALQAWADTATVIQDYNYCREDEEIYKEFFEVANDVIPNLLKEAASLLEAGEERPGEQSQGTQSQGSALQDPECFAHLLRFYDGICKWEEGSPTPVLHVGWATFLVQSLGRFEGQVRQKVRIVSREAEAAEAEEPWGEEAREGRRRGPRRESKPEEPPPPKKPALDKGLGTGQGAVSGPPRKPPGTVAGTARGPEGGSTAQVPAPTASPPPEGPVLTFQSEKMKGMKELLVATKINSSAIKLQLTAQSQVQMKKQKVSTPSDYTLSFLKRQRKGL
# Sequence (Q03164 1-2718 partner limits assumed): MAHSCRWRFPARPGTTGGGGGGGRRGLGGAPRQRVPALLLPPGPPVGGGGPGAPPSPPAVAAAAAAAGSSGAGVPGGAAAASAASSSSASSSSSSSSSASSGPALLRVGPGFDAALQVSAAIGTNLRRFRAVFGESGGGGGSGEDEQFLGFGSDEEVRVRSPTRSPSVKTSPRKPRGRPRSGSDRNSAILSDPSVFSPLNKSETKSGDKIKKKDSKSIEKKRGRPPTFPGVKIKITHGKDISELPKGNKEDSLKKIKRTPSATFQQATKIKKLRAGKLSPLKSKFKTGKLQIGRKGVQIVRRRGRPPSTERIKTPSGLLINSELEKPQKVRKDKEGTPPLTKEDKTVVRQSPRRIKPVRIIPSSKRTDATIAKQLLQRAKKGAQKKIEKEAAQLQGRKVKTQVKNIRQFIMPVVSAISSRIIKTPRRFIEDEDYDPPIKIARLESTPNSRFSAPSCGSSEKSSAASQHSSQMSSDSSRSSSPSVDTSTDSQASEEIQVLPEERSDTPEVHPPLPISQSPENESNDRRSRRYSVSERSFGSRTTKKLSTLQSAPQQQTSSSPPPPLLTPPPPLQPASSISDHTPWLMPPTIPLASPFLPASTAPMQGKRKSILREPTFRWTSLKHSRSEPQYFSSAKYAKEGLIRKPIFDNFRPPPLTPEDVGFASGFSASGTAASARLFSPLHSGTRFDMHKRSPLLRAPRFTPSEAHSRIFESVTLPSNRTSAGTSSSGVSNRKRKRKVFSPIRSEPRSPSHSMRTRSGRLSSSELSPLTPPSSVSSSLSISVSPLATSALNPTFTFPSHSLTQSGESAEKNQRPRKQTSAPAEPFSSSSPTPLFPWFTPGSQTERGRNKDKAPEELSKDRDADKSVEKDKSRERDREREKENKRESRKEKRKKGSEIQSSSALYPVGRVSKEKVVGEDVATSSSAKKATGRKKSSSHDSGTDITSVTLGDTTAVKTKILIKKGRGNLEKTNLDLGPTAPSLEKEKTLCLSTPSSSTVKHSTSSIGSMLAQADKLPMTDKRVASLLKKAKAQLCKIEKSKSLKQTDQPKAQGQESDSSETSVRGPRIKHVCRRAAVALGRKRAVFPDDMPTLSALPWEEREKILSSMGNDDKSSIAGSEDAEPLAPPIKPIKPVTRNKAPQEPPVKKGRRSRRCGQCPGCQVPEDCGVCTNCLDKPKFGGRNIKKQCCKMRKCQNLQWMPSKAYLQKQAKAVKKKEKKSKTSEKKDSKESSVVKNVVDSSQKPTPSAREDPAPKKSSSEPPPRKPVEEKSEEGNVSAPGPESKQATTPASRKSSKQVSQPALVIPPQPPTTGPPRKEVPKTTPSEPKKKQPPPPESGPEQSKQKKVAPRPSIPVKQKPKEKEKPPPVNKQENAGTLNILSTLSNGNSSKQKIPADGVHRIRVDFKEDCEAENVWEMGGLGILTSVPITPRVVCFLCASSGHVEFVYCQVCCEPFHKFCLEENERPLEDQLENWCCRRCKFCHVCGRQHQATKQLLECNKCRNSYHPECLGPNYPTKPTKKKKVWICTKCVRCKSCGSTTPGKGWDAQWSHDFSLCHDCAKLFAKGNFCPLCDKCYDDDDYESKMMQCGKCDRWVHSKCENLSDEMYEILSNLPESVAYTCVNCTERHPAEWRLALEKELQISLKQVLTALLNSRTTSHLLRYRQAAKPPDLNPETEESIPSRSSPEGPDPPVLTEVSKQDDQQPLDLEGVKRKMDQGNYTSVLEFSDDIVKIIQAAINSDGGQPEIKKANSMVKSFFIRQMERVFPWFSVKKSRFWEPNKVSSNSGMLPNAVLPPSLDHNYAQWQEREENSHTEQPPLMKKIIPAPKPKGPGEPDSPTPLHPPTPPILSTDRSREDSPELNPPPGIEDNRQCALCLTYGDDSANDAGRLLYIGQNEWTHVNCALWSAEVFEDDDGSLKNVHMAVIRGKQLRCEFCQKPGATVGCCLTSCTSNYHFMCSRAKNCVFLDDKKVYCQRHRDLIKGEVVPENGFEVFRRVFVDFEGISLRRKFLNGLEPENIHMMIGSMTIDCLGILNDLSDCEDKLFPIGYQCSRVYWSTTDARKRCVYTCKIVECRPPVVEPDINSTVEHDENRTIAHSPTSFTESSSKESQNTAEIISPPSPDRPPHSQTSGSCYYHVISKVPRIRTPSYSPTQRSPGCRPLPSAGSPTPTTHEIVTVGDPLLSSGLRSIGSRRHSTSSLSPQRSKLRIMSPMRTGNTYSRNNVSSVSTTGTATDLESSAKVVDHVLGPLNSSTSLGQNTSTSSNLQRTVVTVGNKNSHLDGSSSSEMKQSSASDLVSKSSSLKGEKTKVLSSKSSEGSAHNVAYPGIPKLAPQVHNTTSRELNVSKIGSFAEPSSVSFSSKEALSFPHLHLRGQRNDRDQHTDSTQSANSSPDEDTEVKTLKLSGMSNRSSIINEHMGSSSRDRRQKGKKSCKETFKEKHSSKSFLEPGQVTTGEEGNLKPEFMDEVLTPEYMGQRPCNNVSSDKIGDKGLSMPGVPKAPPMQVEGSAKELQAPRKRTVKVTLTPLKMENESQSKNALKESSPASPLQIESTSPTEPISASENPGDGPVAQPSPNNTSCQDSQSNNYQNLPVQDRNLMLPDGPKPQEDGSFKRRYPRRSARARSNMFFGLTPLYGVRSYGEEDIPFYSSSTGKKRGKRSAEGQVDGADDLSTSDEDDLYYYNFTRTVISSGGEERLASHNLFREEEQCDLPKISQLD
# Sequence (Q03164 2719-3969 partner limits assumed): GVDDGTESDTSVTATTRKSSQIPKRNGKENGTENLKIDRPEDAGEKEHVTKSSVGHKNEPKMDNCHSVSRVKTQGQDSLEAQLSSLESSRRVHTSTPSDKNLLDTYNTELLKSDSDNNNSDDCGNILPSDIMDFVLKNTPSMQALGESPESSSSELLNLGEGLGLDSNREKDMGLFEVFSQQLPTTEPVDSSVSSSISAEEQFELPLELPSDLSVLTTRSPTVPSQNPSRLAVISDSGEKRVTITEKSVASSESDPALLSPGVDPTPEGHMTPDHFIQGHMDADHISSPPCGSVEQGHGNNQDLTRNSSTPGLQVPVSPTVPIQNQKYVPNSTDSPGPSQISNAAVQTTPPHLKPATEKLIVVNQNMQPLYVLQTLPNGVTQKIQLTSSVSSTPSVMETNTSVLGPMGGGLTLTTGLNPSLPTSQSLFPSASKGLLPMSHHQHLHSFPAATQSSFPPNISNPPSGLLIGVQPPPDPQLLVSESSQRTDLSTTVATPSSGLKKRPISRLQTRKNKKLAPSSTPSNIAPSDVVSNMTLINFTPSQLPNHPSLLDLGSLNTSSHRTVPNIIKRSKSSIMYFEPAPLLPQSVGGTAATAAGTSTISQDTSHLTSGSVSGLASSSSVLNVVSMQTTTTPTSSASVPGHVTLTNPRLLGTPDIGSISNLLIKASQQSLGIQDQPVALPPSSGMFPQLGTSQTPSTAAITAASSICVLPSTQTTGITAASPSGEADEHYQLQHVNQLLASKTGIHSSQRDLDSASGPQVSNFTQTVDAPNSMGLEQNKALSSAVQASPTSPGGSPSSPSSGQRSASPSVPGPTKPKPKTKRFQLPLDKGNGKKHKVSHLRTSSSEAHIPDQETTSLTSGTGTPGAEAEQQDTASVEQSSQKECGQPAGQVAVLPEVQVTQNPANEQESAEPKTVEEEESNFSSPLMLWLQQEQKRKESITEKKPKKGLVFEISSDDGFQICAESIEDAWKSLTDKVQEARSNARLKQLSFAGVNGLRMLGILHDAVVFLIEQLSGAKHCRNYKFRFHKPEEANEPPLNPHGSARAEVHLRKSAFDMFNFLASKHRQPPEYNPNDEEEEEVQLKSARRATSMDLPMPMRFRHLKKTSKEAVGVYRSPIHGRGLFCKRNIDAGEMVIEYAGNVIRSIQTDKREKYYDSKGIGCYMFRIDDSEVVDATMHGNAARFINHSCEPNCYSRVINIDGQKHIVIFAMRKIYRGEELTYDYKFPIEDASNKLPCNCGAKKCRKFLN
# Procedure Details: Inhibition of human recombinant full length menin/MLL1 (unknown origin) interaction using Ac-SRWRFPARPGTGRR-Ahx-Ahx-K-FAM as substrate after 15 mins by fluorescence polarization binding assay
Measure: IC50 (µM)

FC(F)(F)Cc1cc2c(NC3CCN(Cc4ccco4)CC3)ncnc2s1 | 4.69

1 = CCCN1CCC(Nc2ncnc3sc(CC(F)(F)F)cc23)CC1
2 = N#Cc1ccc(OCCCN2CCN(c3ncnc4sc(CC(F)(F)F)cc34)CC2)cc1
3 = CNCCCOc1cccc(CN2CCC(Nc3ncnc4sc(CC(F)(F)F)cc34)CC2)c1
IN: Let's sort these by IC50, smallest first. Go ahead? Rank them, then answer with their labels in that order.
OUT: 2, 3, 1

###

# System: MV4-11
# Procedure Details: Antiproliferative activity against human MV4-11 cells expressing MLL-AF4 after 7 days by MTS assay
# Assay type: functional, cell-based
# Measurement Setup: MV4-11, 168 h
Measure: IC50 (nM)

Guide cases for IC50, answers given:
COc1ccc(CN2CCC(CNc3ncnc4sc(CC(F)(F)F)cc34)CC2)cc1 | 1280
NCCCOc1cccc(CN2CCC(Nc3ncnc4sc(CC(F)(F)F)cc34)CC2)c1 | 390
FC(F)(F)Cc1cc2c(NC3CCN(Cc4ccsc4)CC3)ncnc2s1 | 790
COc1ccc(CN2CCC(Nc3ncnc4sc(CC(F)(F)F)cc34)CC2)cc1 | 2420
CN(C)CCOc1cccc(CN2CCC(Nc3ncnc4sc(CC(F)(F)F)cc34)CC2)c1 | 3490

1 = N#Cc1ccc(NCCCN2CCN(c3ncnc4sc(CC(F)(F)F)cc34)CC2)cc1
2 = N#Cc1ccc(OCCCN2CCN(c3ncnc4sc(CC(F)(F)F)cc34)CC2)cc1
3 = Fc1ccc(CN2CCC(Nc3ncnc4sc(CC(F)(F)F)cc34)CC2)cc1
4 = CNCCCOc1cccc(CN2CCC(Nc3ncnc4sc(CC(F)(F)F)cc34)CC2)c1
5 = CC1(C)CN=C(N2CCN(c3ncnc4sc(CC(F)(F)F)cc34)CC2)S1
IN: Sort these molecules on IC50 so the largest reading comes first. Respond with the label ranking, as requested.
OUT: 3, 1, 4, 2, 5
(3: 6320 nM, 1: 2690 nM, 4: 1650 nM, 2: 1020 nM, 5: 640 nM)

###

# System: Menin/Histone-lysine N-methyltransferase MLL (Homo sapiens) (UniProt O00255+Q03164)
# Procedure Details: Inhibition of human recombinant full length menin/MLL1 (unknown origin) interaction using Ac-SRWRFPARPGTGRR-Ahx-Ahx-K-FAM as substrate at 20 uM after 15 mins by fluorescence polarization binding assay
# Type: protein assay
Measure: inhibition (%)

Some molecules with known inhibition results, for comparison:
FC(F)(F)Cc1cc2c(NC3CCN(Cc4cccc5ccccc45)CC3)ncnc2s1 | 2.4
C#CCN1CCC(Nc2ncnc3sc(CC(F)(F)F)cc23)CC1 | 31.3
FC(F)(F)Cc1cc2c(NC3CCN(Cc4ccc5ccccc5c4)CC3)ncnc2s1 | 15.6

A = N#Cc1ccc(CN2CCC(Nc3ncnc4sc(CC(F)(F)F)cc34)CC2)cc1
B = FC(F)(F)Cc1cc2c(NC3CCN(Cc4ccc(C(F)(F)F)cc4)CC3)ncnc2s1
IN: Could you determine which record has the numerically smaller inhibition? Candidates: A and B Write down the label of the entry you select.
OUT: B

###

# System: Menin/Histone-lysine N-methyltransferase MLL (Homo sapiens)
# Procedure Details: Inhibition of human recombinant full length menin/MLL1 (unknown origin) interaction using Ac-SRWRFPARPGTGRR-Ahx-Ahx-K-FAM as substrate after 15 mins by fluorescence polarization binding assay
pIC50: −log10 of the molar value.
Measure: pIC50

CN(C)CCOc1cccc(CN2CCC(Nc3ncnc4sc(CC(F)(F)F)cc34)CC2)c1 | 6.11

A = COc1ccc(CN2CCC(CNc3ncnc4sc(CC(F)(F)F)cc34)CC2)cc1
B = Cc1cccc(CN2CCC(CNc3ncnc4sc(CC(F)(F)F)cc34)CC2)c1
C = FC(F)(F)Cc1cc2c(NC3CCN(CCc4ccccc4)CC3)ncnc2s1
D = FC(F)(F)Cc1cc2c(NC3CCN(Cc4ccsc4)CC3)ncnc2s1
E = FC(F)(F)Cc1cc2c(NC3CCN(Cc4cccc(OC5CCNCC5)c4)CC3)ncnc2s1
IN: // sort entries: pIC50, high to low Respond with the label ranking, as requested.
OUT: D, A, C, B, E
(D: 6.66, A: 5.97, C: 5.74, B: 5.42, E: 4.87)

A = N#Cc1ccc(NCCCN2CCN(c3ncnc4sc(CC(F)(F)F)cc34)CC2)cc1
B = FC(F)(F)Cc1cc2c(NC3CCN(Cc4ccncc4)CC3)ncnc2s1
IN: // which entry has the larger pIC50 value, A or B ? Write down the label attached to your selection.
OUT: A

1 = NCCOc1cccc(CN2CCC(Nc3ncnc4sc(CC(F)(F)F)cc34)CC2)c1
2 = Fc1ccc(CN2CCC(Nc3ncnc4sc(CC(F)(F)F)cc34)CC2)cc1
3 = FC(F)(F)Cc1cc2c(NC3CCN(Cc4ccccc4)CC3)ncnc2s1
4 = CN(C)CCCOc1cccc(CN2CCC(Nc3ncnc4sc(CC(F)(F)F)cc34)CC2)c1
IN: Rank descending by pIC50. Return value: ordered labels per request.
OUT: 3, 1, 2, 4
(3: 6.33, 1: 5.91, 2: 5.70, 4: 5.13)

I = Nc1cccc(CN2CCC(Nc3ncnc4sc(CC(F)(F)F)cc34)CC2)c1
II = FC(F)(F)Cc1cc2c(NCC3CCN(Cc4ccccc4)CC3)ncnc2s1
III = NCCCOc1cccc(CN2CCC(Nc3ncnc4sc(CC(F)(F)F)cc34)CC2)c1
IN: Descending sort on pIC50 required. I would appreciate it if you listed the labels in the requested order.
OUT: III, I, II
(III: 6.17, I: 5.90, II: 5.65)

I = Fc1ccc(CN2CCC(CNc3ncnc4sc(CC(F)(F)F)cc34)CC2)cc1
II = FC(F)(F)Cc1cc2c(NC3CCNCC3)ncnc2s1
III = CN1CCC(Oc2cccc(CN3CCC(Nc4ncnc5sc(CC(F)(F)F)cc45)CC3)c2)CC1
IV = COc1ccc(CN2CCC(Nc3ncnc4sc(CC(F)(F)F)cc34)CC2)cc1
IN: Sort entries by pIC50 from minimum to maximum value. The reply should contain the labels ordered as requested.
OUT: II, III, I, IV
